assay: yeast display, Sf9 membrane polyspecificity reagent, FACS + sequencing; frameworks hold sequencing errors
Quantity Measured: polyreactivity (PSR sort gate)

# Monomer Sequence, Reported Measurement
measured = [
    ("QVQLVESGGGLVQAGGSLRLSCAASGRIFQKNAMGWYRQAPGKERELVAAISSGGSTNYADSVKGRFTISRDNAKNTVYLQMNSLKPEDTAVYYCAVESVYEYGGYVDSAYDYWGQGTQVTVSS", "low polyreactivity"),
    ("QVQLVESGGGLVQAGGSLRLSCAASGSTFYYYAMGWYRQAPGKERELVAAITYSGGGTYYADSVKGRFTISRDNAKNTFYLQMNSLKPEDTAVYYCAKTIAVNTWYYYWGQGTQVTVSS", "low polyreactivity"),
    ("QVQLVESGGGLVQAGGSLRLSCAASGSTFVGYAMGWYRQAPGTERDLVAAISSSGSTNYADSVKGRFTISRDNAKNTVYLQMNSLKPEDTAVYYCAALYSYFWLIIDYGYWGQGTQVTVSS", "low polyreactivity"),
    ("QVQLVESGVGLVQAGGSHRLSCAASGFTFLINAMGWYRQEPWKERELVAAIRSGGSTNYADSVKGRFTISRDNAKNTVYLQMNSLKPEETAVYYCAARRYYPDKYRYGYWGQGTQVTVSS", "high polyreactivity"),
    ("QVQLVESGGGLVQAGGSLRLSCAASGSTFDYYTMGWYRQAPGKERELVAAISSSGGSTYYADSVTGRFTISRDNAKNTVYLQMNSLKPEDTAVYDCAARGYHYSYLRGDTGYYYWGQGTQVTVSS", "low polyreactivity"),
    ("QVQLVESGGGLVQAGGSLRLSCAASGITFIYYDMGWYRQAPGKEREFVAAINYRGTSTYYADSVKGRFTISRDNAKNTVYLQMNSLKPEDTAVYYCAARLRQTGGDRLGYWGQGTQVTVSS", "high polyreactivity"),
]

Go through the list and state polyreactivity (PSR sort gate) for each entry.
1. QVQLVESGGGLVQAGGSLRLSCAASGSIFYANAMGWYRQAPWKEREFVAAISSSGGGTSYADSVKGRFTISRDNAKNTVYLQMNSLKPEDTAVYYFAARVTYGGIPARQIYDYWGQGTQVTVSS
2. QVQLVESVGGLVQAGGSLRLTCAASVITQRFNSMGWYRQAPGKEMELVAAISSGTNTYYADSVKGRFAISRDNAKNTVYLQMNSLKPEDTAVYYCADTLGYYTSGRSYQRYDYWGHGTQVTVSS
3. QVQLVESGGGLVQAGGSLRLSCAASGSTLYGYAMGWYRQAPGNERELVAAISVSGGRTYYADSVKGRFTISRDNAKNTVYLQMNSLKPEDTAVYYCAAYGTTRMDYWGQGTQVTVSS

1. low polyreactivity
2. low polyreactivity
3. high polyreactivity

====

test: yeast display, Sf9 membrane polyspecificity reagent, FACS + sequencing; frameworks hold sequencing errors
Quantity Measured: polyreactivity (PSR sort gate)

Known results for sequences:
# Monomer Sequence, polyreactivity (PSR sort gate)
records = [
    ("QVQLVESGGGLVQAGGSLRLSCAASGRIFVTYVMGWYRQAPGKERELVAAISRRGGTTYYADSVKGRFTISRDNAKNTVYLQMNSLKPEDTAVYYCNVARDYAVESGYWGQGTQVTVSS", "high polyreactivity"),
    ("QVQLVESGGGLVQAGGSLRLSCAASGFTFGSNAMGWYRQAPGKERELVAAISWSGGRTYYADSVKGRFTISRDNAKNTVYLQMNSLKPEDTAVYYCNKQYVKPWYRGYYYWGQGTQVTVSS", "high polyreactivity"),
    ("QFQLVESGGGLVQAGGSLRLSCAASGSIFRENAMGWYRQAPGKEMELVAAIYVRDGDTFYADSVKGRFTISRDNAKNTVYLQMNSLKPEDTAVYYCAADQQKWYTGYDYWGQCTQVTVSS", "low polyreactivity"),
    ("QVQLVESGGGLVQAGGSLRLICAASGLTFSIYAMGWYRQAPGKERELVAAITGRGGRTYYADSVKGRFTISRDNAKNTVYLQMNSLKPEDTAVYYCAARYRGTDFDYWGQGTQVTVSS", "high polyreactivity"),
    ("QVQLVESGGGLVQAGGSLRLSCAASGSTFTIYAIGWSRQAPGKERELVAGITRVGSTNYADSVKGRFTISRDNAKNTVYLQMNSLKPEDTAVYYCARRDLFQAGYEYWGQGTQVTVSS", "low polyreactivity"),
]

Now consider a different sequence.
Query polyreactivity (PSR sort gate) for `QVQLVESGGGLVQAGGSLRLSCAASGSIFTYYAMGWYRQAPGKERELVAGITRGGSTYYAESVKGRFTISRDNAKNTVYLQMNSLKPEDTAVYYCNARWVLFYTGDGQEHDYWGQGTQVTVSS`
low polyreactivity

====

assay: yeast display, Sf9 membrane polyspecificity reagent, FACS + sequencing; frameworks hold sequencing errors
Quantity Measured: polyreactivity (PSR sort gate)

# Monomer Sequence, Quantity Measured, Reported Measurement
rows = [
    ("QVQLVESGGGLVQAGGSLRLSCAASGSIFGTNAMGWYRQAPGKERELVAAITGRGGSTYYADSVKGRFTISRDNAKNTVYLQMNSLKPEDTAVYYCAVKISTYTYGYWGQGTQVTVSS", "polyreactivity (PSR sort gate)", "high polyreactivity"),
    ("QVQLVESGGGLVQAGGSLRLSCAASGFTFKTYAMGSYRPAPGKEREFVAAISSRGGSTYYSDSVKGRFTISRDNAKNTVYLQMHSLKPEDTAVYYCATATRPRDRYSRYGYWGQGTQVTVSS", "polyreactivity (PSR sort gate)", "high polyreactivity"),
    ("QVQLVESGGGLVQAGGSLRLICAASGLTFRYYAMGWYRQAPGKERELVAAITRGGSTYYADSVKGRFTISRDNAKNTVYLQMNSLKPEDTAVYYCAAYDVRYNTYDYDYWGQGTQVTVSS", "polyreactivity (PSR sort gate)", "high polyreactivity"),
]

====

assay: yeast display, Sf9 membrane polyspecificity reagent, FACS + sequencing; frameworks hold sequencing errors
Quantity Measured: polyreactivity (PSR sort gate)

# Monomer Sequence, Reported Measurement
rows = [
    ("QVQLLESGGGLVQAGGSLRLSCAASGFIFDIYAMGWYRQAPGKERELVASINWSGGDSTSYADSVKGRFTISRDNAKNTVFLQMYSLKPEDTAVYFCNAEYWSYSGGYPDEYDYWGLGTQVTVSS", "low polyreactivity"),
    ("QGQLVESGGGLVQAGGSLRLSCAASGLTFKYYTMGWYRQAPGKEMELVAAINWSGASTYADSVKGRFTISRDNAKNTVYLQMNSLKPEDTAVYYCAADSPSWAPVREYDFWGQGTQVTVSS", "low polyreactivity"),
]

====

test: yeast display, Sf9 membrane polyspecificity reagent, FACS + sequencing; frameworks hold sequencing errors
Quantity Measured: polyreactivity (PSR sort gate)

Consider the worked cases shown below.
# Monomer Sequence, polyreactivity (PSR sort gate)
data = [
    ("QVQHVESGGGLVQARGSLRLRCAASGFIFRANAMGWYRHAPGKERELVATISRSGGSTSYADSVKGLFTISRDNAKNTVYLQMNSLKPEDSAVYYCAARKYTLRRKSRYGYWGQGTQVTVSS", "high polyreactivity"),
    ("QVQLVESGGGLVQAGGSLRLSCAASGRTFFVYAMGWYRQAPGKERELVASITLSRGSTYYADSVKGRFTISRDNAKNTCYLQMNSLKPEDTAVYYCSKGWSRDNDREREDEYWGQGTQVTVSS", "low polyreactivity"),
    ("QVQLVESGGGLVQAGGSLRLSCAASGSIFGDYDMGWYRQAPGKERELVAAINRGGSTYYADSVKGRFTMSRDNAKNTVYLQMISLKPEDTAVYYCAAGYPSWYYGYAYDSWGQGTQVTVSS", "low polyreactivity"),
    ("QVQLVESGGGLVQAGGSLRLSCAASGRTFGSNAMGWYRQAPGKERELVAAISFSGGSTYYADSVKGRFTISRDNAKNTVYLQMNSLKPEDTAVYYCAAEYPQKGDRGSRRRIDGYWGQGTQVTVSS", "high polyreactivity"),
    ("QVQLVESGGGLVQAGGSLLLSCAASGITFGVYAMGWYRQAPGKERELVAAISVNGGSTYYADSVKGRFTISRDNAKNTVYLQMNSLNPQDTAVYSCAADVLYYIDDDSIIEYDYWGQGTQVTVSS", "low polyreactivity"),
]

# input for lookup
Please look at this sequence and report its polyreactivity (PSR sort gate): `QVQLVESGGGLVQAGGSLRLSCAASGSTFPYYAMGWYRQAPGKERELVAAISSSGGSTYYADSVKGRFTFSRDNAKNTVYLLMNSLKPEDTAVYYCNVVKSRGLFSYDYWGQGSQVTVSS`
high polyreactivity

====

experiment: yeast display, Sf9 membrane polyspecificity reagent, FACS + sequencing; frameworks hold sequencing errors
Quantity Measured: polyreactivity (PSR sort gate)

# Monomer Sequence, Reported Measurement
data = [
    ("QVQLVESGGGLVQAGGSLRLSCAASGSTFAINAMGWYRQAPGKERELVAAISSSGSTNYADSVKGRFTISRDNAKNTVYLQMNSLKPEVTAVYYCAADRVWGTPQAYVPSQFDYWGQGTQVTVSS", "low polyreactivity"),
    ("QVQLVESGGGLVQAGGSLRLSCAASGSIFYSNAMGWYRQAPGKERELVAAITVGGGRTYYADSVKGRFTISRDNAKYTVYLQMNSLNPEDTAVYYCAADSHASTYDYWGQGTQVTVSS", "low polyreactivity"),
    ("QVQLVESGGGLVQAGGSLRLSCAASGRIFEAYAMGWYRQAPGKERELVAAISGSGGSTYYADSVKGRFTISRDNAKNTVYLQMNSLKPEDTAVYYCAADDYYRVYWGQGTQVTVSS", "high polyreactivity"),
    ("QVQLVESGGGLVQAGGSLRLSCAASGFIFRIYAMGWYRQAPGKERELVAAITWDGVSTYYADSVKGRFTISRDNAKNTVYLQMNSLKPEDTAVYYCAARKRSYPYYYWGQGTQVTVSS", "high polyreactivity"),
]
